# testDetails: Fraction unbound in human plasma
# Format: ADME, cell-free
parameter: fraction unbound
# answer = number (no unit)

Data request: fraction unbound lookup needed for Cc1cc(Nc2nc(N[C@@H](C)c3ccc(F)cn3)c(C#N)cc2F)n[nH]1 , thanks.
Data returned: 0.053

###

# testDetails: Plasma concentration in NCr mouse tansplanted with TEL-JAK2 expressing mouse BA/F3 cells at 10 mg/kg, po after 6 hrs
# Type: ADME, organism-based, BaF3
# Parameters: dose 10 mg/kg, route oral
parameter: concentration at 6 h
Could you give the number and then its unit, please?

Data request: concentration at 6 h lookup needed for Cc1cc(Nc2nc(N[C@@H](C)c3ccc(F)cn3)c(C#N)cc2F)n[nH]1 , thanks.
Data returned: 328 ng/mL

###

# assayTarget: Tyrosine-protein kinase JAK2 (Homo sapiens, UniProt O60674)
# Sequence (O60674 whole entry, the tested form may be a part): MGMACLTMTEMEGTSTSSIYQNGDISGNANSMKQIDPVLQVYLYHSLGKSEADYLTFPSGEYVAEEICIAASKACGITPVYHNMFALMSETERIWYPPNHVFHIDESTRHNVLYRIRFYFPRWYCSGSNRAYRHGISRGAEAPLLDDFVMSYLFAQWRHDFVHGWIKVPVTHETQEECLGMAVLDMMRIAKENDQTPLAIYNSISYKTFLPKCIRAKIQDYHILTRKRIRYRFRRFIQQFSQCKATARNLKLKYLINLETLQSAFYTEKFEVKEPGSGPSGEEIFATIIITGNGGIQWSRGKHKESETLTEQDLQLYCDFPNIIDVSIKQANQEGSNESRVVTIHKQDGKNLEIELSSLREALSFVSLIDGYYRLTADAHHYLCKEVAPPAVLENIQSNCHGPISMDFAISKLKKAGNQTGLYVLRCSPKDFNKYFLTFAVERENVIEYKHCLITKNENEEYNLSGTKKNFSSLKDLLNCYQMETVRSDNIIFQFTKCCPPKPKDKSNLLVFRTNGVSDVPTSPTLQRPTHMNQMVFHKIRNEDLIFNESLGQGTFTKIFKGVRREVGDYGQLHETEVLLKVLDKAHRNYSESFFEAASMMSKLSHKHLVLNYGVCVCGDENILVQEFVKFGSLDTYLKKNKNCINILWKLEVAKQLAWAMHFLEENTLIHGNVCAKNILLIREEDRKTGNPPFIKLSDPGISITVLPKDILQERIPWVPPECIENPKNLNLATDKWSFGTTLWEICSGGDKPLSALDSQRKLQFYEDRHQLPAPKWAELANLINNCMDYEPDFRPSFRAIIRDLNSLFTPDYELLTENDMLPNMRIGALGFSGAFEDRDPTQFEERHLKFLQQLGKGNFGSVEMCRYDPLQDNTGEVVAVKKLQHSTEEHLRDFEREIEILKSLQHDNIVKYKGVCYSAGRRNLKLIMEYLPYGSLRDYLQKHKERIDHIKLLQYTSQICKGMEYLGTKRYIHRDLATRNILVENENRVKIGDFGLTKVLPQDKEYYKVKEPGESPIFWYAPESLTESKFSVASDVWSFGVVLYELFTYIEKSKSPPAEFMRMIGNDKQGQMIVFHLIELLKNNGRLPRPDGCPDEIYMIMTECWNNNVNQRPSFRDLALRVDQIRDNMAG
# testDetails: Inhibition of TEL-fused JAK2-induced proliferation of mouse BA/F3 cells
# Format: cell-based
# particulars: BaF3
parameter: GI50

[[record]]
molecule = "Cc1cc(Nc2nc(N[C@@H](C)c3ccc(F)cn3)c(C#N)cc2Cl)n[nH]1"
parameter = "GI50"
measuredresult = "0.04 µM"


Data request: Could you share what GI50 was measured for C[C@H](Nc1nc(Nc2cc(C3CC3)[nH]n2)c(F)cc1C#N)c1ccc(F)cc1 , tested on Tyrosine-protein kinase JAK2 (Homo sapiens, UniProt O60674)?
Data returned: 0.17 µM

Data request: Could you share what GI50 was measured for Cc1cc(Nc2nc(N[C@@H](C)c3ccc(F)cc3)c(C#N)cc2F)n[nH]1 , tested on Tyrosine-protein kinase JAK2 (Homo sapiens, UniProt O60674)?
Data returned: 0.024 µM

Data request: Could you share what GI50 was measured for Cc1cc(Nc2nc(N[C@@H](C)c3ccc(F)cn3)c(C#N)cc2F)n[nH]1 , tested on Tyrosine-protein kinase JAK2 (Homo sapiens, UniProt O60674)?
Data returned: 0.036 µM

###

# testDetails: Intrinsic clearance in Han Wistar rat microsomes at 10 mg/kg, po and 3 mg/kg, iv
# Type: ADME, Microsome
parameter: microsomal CLint (µL/min/mg)
Number only, in µL/min/mg; omit the unit.

Example cases with answers are listed next.
[[record]]
molecule = "Cc1cc(Nc2nc(N[C@@H](C)c3ccc(F)cn3)c(C#N)cc2F)n[nH]1"
measuredresult = 5

[[record]]
molecule = "Cc1cc(Nc2nc(N[C@@H](C)c3ccc(F)cn3)c(C#N)cc2Cl)n[nH]1"
measuredresult = 5


Query compound follows.
Data request: microsomal CLint lookup needed for Cc1cc(Nc2nc(N[C@@H](C)c3ccc(F)cc3)c(C#N)cc2F)n[nH]1 , thanks.
Data returned: 17

###

# reported solubility; entries follow
# testDetails: Aqueous solubility of compound
# Type: physicochemical

Example cases with answers are listed next.
[[record]]
molecule = "Cc1cc(Nc2nc(N[C@@H](C)c3ccc(F)cn3)c(C#N)cc2F)n[nH]1"
measuredresult = "303 µM"

[[record]]
molecule = "Cc1cc(Nc2nc(N[C@@H](C)c3ccc(F)cc3)c(C#N)cc2F)n[nH]1"
measuredresult = "13 µM"


Query compound follows.
Data request: solubility lookup needed for Cc1cc(Nc2nc(N[C@@H](C)c3ccc(F)cn3)c(C#N)cc2Cl)n[nH]1 , thanks.
Data returned: 100 µM

###

# testDetails: Volume of distribution at steady state in Han Wistar rat at 10 mg/kg, po and 3 mg/kg, iv
# Assay type: ADME, organism-based
# particulars: in vivo, read-out: Vdss
# reported Vd; entries follow
Number only, in L/kg; omit the unit.

[[record]]
molecule = "Cc1cc(Nc2nc(N[C@@H](C)c3ccc(F)cn3)c(C#N)cc2F)n[nH]1"
parameter = "Vd"
measuredresult = 0.84

[[record]]
molecule = "Cc1cc(Nc2nc(N[C@@H](C)c3ccc(F)cn3)c(C#N)cc2Cl)n[nH]1"
parameter = "Vd"
measuredresult = 0.52


Query compound follows.
Data request: Vd lookup needed for Cc1cc(Nc2nc(N[C@@H](C)c3ccc(F)cc3)c(C#N)cc2F)n[nH]1 , thanks.
Data returned: 2.6
